Each recorded value in this set is attributed to ChEMBL document CHEMBL4765259.

experiment: Antiproliferative activity against human HEK293T cells incubated for 48 hrs by MTT assay; assay type: cell-based, HEK-293T

| smilesRepresentation | unitTag | CC50 at 48 h |
| --- | --- | --- |
| COc1ccc(/C=C\c2cc(OC)c(OC)c(OC)c2)cc1O | µM | 1.44 |
| CC(C)=CC[C@@H](O)C1=CC(=O)c2c(O)ccc(O)c2C1=O | µM | 7 |
| COc1cc2c(c(OC)c1OC)-c1ccc(OC)c(=O)cc1[C@@H](NC(C)=O)CC2 | µM | 8.43 |

====

experiment: AUC (0 to infinity) in Sprague-Dawley rat at 1.5 mg/kg, iv by UPLC/MS analysis; assay type: ADME, organism-based; parameters: time infinity, route intravenous, dose 1.5 mg/kg; conditions: in vivo

| smilesRepresentation | unitTag | AUC(0-inf) |
| --- | --- | --- |
| COc1ccc2cc(C(=O)O[C@H](CC=C(C)C)C3=CC(=O)c4c(O)ccc(O)c4C3=O)oc2c1 | ng·h/mL | 2160 |
